I'd be grateful if you could share measured Population Mitotic Cells (%) for these entries.
system: HEK-293T; test: Multiplex assay against HEK293T; format: toxicity, cell-based; details: human, 12 h, 10 µM, compound concentration 10 uM, replicate 1
Please give the number followed by its unit.

As a guide, the following entries are already answered.
Cc1c(Cc2ccc3ccccc3n2)c2cc(F)ccc2n1CC(=O)O [TIMAPIPRANT] ... 67%
CSc1nc(NC2CCCC2)c([N+](=O)[O-])c(NC2CCCC2)n1 [GS-39783] ... 70%

Please state Population Mitotic Cells (%) for every compound in the list that follows.
1. Cc1ccc(OCC(O)C(C)NC(C)C)c2c1CCC2.Cl (stereo not drawn)
2. O=C(Nc1cc(-c2ccccc2)nn1-c1ccccc1F)c1ccc([N+](=O)[O-])cc1

1: 56%; 2: 62%

Dear reader, for each entry below, please note its Population Mitotic Cells (%).
1. CN1CCC(C(=O)c2cccc(NC(=O)c3c(F)cc(F)cc3F)n2)CC1
2. CN(C)C/C=C/C(=O)Nc1ccc(C(=O)N2CCCC(Nc3ncc(Cl)c(-c4c[nH]c5ccccc45)n3)C2)cc1 (stereo not drawn)
3. COc1cc(Nc2ncc3c(n2)-c2ccc(Cl)cc2C(c2c(F)cccc2OC)=NC3)ccc1C(=O)O [ALISERTIB]
4. Cn1cc(C(=O)OCC2CCN(CCNS(C)(=O)=O)CC2)c2ccccc21
5. Cc1cc(O)c(-c2ccc([C@@H](C)CN(C)C)cc2)c2c1[nH]c(=O)c1sccc12
6. CCCCCCNC(=O)Nc1ccc(S(=O)(=O)Nc2ccc(CCNC[C@H](O)COc3ccc(O)cc3)cc2)cc1 [L-755507]
7. C[C@@H]1CC(=O)Nc2cccc(-c3ccc4c(c3)c(-c3cnn(C)c3)nn4C)c2N1

["47%", "37%", "38%", "52%", "46%", "41%", "50%"]

Required: Population Mitotic Cells (%), one value per compound below.
1. CCc1nn2c(C)cc(C)nc2c1Cc1ccc(-c2nnc(C3CCNCC3)o2)cc1
2. COc1ccc2c(c1OCc1ccccc1)C[C@@H](C(=O)O)N(C(=O)C(c1ccccc1)c1ccccc1)C2 [OLODANRIGAN]
3. O=c1nc2[nH]c3ccccc3nc-2c(=O)[nH]1 [ALLOXAZINE]
4. O=c1ccc2ccc(OCCCCN3CCN(c4cccc5sccc45)CC3)cc2[nH]1 [BREXPIPRAZOLE]
5. Cc1cc(NC(=O)NCCN2CCC(O)(Cc3ccccc3)CC2)c2ccccc2n1 [PALOSURAN]
6. CCCCC[C@H](O)/C=C/[C@H]1[C@H](O)CC(=O)[C@@H]1CCCCCCC(=O)O [ALPROSTADIL]
7. C=CCN1C[C@H](C(=O)N(CCCN(C)C)C(=O)NCC)C[C@@H]2c3cccc4[nH]cc(c34)C[C@H]21 [CABERGOLINE]

["36%", "54%", "59%", "17%", "61%", "66%", "46%"]

====

system: Fibroblast; experiment: Multiplex assay against human fibroblast; type: toxicity, cell-based; settings: 48 h, 10 µM, compound concentration 10 uM, replicate 1
Could you please report measured Population Tubulin-Different-Phenotype (%) for the items listed next?
Answers are plain numbers, in %.

# map each molecule to its Population Tubulin-Different-Phenotype (%)
1. Nc1nc(-c2ccco2)c2cnn(Cc3ccccc3F)c2n1
2. Cc1cc(=O)n(C)c2cc(N3C(=O)CC[C@H](NS(=O)(=O)CC(C)C)[C@H]3c3ccc(Cl)cc3)ccc12

1. 27
2. 92

Need Population Tubulin-Different-Phenotype (%) for each of these molecules.
1. CCn1c(-c2nc3cc(C(=O)N4CCCC(N)C4)ccc3n2C)cc2ccccc21.Cl (stereo not drawn)
2. O=c1nc2[nH]c3ccccc3nc-2c(=O)[nH]1
3. Cl.Cl.OCCOCCN1CCN(C(c2ccccc2)c2ccc(Cl)cc2)CC1 (stereo not drawn) [HYDROXYZINE HYDROCHLORIDE]
4. Cc1cc(O)c(-c2ccc([C@@H](C)CN(C)C)cc2)c2c1[nH]c(=O)c1sccc12
5. Cc1sc2c(c1C)C(c1ccc(Cl)cc1)=N[C@H](CC(=O)OC(C)(C)C)c1nnc(C)n1-2

1: 85; 2: 29; 3: 62; 4: 89; 5: 70

Below are some molecules; for each one, tell me its Population Tubulin-Different-Phenotype (%).
1. C[C@H](NC(=O)CNC(=O)c1cccc(Cl)c1)c1ccccc1
2. CCCCCCNC(=O)Nc1ccc(S(=O)(=O)Nc2ccc(CCNC[C@H](O)COc3ccc(O)cc3)cc2)cc1

[50, 49]

The following molecules each have a reported value; give each one's Population Tubulin-Different-Phenotype (%).
1. C=CCN1C[C@H](C(=O)N(CCCN(C)C)C(=O)NCC)C[C@@H]2c3cccc4[nH]cc(c34)C[C@H]21
2. COc1c(Nc2ccc(S(C)(=O)=O)nc2C)ncnc1OC1CCN(C(=O)OC(C)C)CC1
3. N[C@](CC1c2ccccc2Oc2ccccc21)(C(=O)O)[C@H]1C[C@@H]1C(=O)O
4. O=C(O)CCC/C=C\CC1C(O)CC(O)C1/C=C/C(O)COc1cccc(Cl)c1 (stereo not drawn)

1: 46; 2: 57; 3: 32; 4: 30

Respectfully, I request Population Tubulin-Different-Phenotype (%) for each entry included below.
1. Cc1ccc(OCC(O)C(C)NC(C)C)c2c1CCC2.Cl (stereo not drawn)
2. Nc1nc(CC(=O)Nc2ccc(CCNC[C@H](O)c3ccccc3)cc2)cs1
3. CN(C)C(=O)Cn1cc(-c2ccc(-c3nnc4ccccn34)cc2)cn1
4. S=C(NCCCc1c[nH]cn1)NCCCN(Cc1ccc(Cl)c(Cl)c1)c1ccc(Br)cn1

1. 68
2. 21
3. 38
4. 91

Please look at the items below and tell me Population Tubulin-Different-Phenotype (%) for each one, in order.
1. CN1C[C@H](C(=O)N[C@]2(C)O[C@@]3(O)[C@@H]4CCCN4C(=O)[C@H](Cc4ccccc4)N3C2=O)C[C@@H]2c3cccc4[nH]cc(c34)C[C@H]21.CS(=O)(=O)O [DIHYDROERGOTAMINE MESYLATE]
2. COc1cc(C(=O)N2CC[C@@H](O)[C@@H](N)C2)cc2nc(-c3cc4ccccc4n3CC3CC3)n(C)c12.Cl
3. COc1cc2nc(N3CCN(C(=O)c4ccco4)CC3)nc(N)c2cc1OC.Cl [PRAZOSIN HYDROCHLORIDE]
4. CC(C)(O)C(=O)N1CCN(c2ccc(C(F)(F)F)c(C3=C(c4c[nH]c5ccccc45)C(=O)NC3=O)c2)CC1

1: 20; 2: 94; 3: 32; 4: 93

// input: 6 molecules below; output: Population Tubulin-Different-Phenotype (%) for each
1. CN1CCN2c3ccccc3Cc3ccccc3C2C1.Cl (stereo not drawn) [MIANSERIN HYDROCHLORIDE]
2. CC(C)C[C@H](CO)Nc1nc(S[C@@H](C)c2ccccc2)nc2nc(N)sc12
3. CCc1nn2c(C)cc(C)nc2c1Cc1ccc(-c2nnc(C3CCNCC3)o2)cc1
4. CCC(=O)OCC(=O)[C@@]1(OC(=O)CC)[C@@H](C)C[C@H]2[C@@H]3CCC4=CC(=O)C=C[C@]4(C)[C@@]3(Cl)[C@@H](O)C[C@@]21C [BECLOMETHASONE DIPROPIONATE]
5. CC(C)(C)c1ccc(CSc2cnn(C(C)(C)C)c(=O)c2Cl)cc1
6. Cc1cc(-c2ccc3c(c2)CC[C@H]3N2CC3(CCN(C(=O)Cc4cn5cc(C)sc5n4)CC3)C2)ncn1

16
35
73
76
49
37

Give the reported Population Tubulin-Different-Phenotype (%) for this molecule. "OCCCNc1cc(-c2ccnc(Nc3cccc(Cl)c3)n2)ccn1"
77
